- protocolDescription: anti-His antibody binders, primary screen, artefact control for SMM control protein annotation, biochemical, small-molecule microarray, 635 nm fluorescence (AID 1128);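 further: score merges feature fluorescence with signal-to-noise for each printed compound spot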
- conditionContext: anti-His Alexa647 antibody binding, higher = more signal
composite z-score for assorted compounds
Please respond with just the number, no unit label.

compound | val
N#Cc1ccc(NN2C(C(O)c3ccc(B(O)O)cc3)C=CC3CN(c4ccccc4)C(=O)C32)cc1 (centres undefined) | 0.48

Exam item: composite z-score lookup needed for COc1ccc(NN2C(C(O)c3ccc(F)cc3)C=CC3C(=O)N(C4CCCCC4)C(=O)C32)cc1 (centres undefined) , thanks.
Marked response: 0.683

Exam item: composite z-score lookup needed for C=CCNC(=O)[C@H]1[C@@H]2C(=O)O[C@@H](c3ccccc3)[C@@H](c3ccccc3)N2[C@@H](c2ccc(OCCO)cc2)[C@]12C(=O)N(C(=O)OCCOC)c1ccc(C#CCC(C(=O)OC)C(=O)OC)cc12 , thanks.
Marked response: 0.302

Exam item: composite z-score lookup needed for CCCC1(C(=O)OC)C=C2C(=C(C(C)C)C(=O)C2C)CN1 (centres undefined) , thanks.
Marked response: 1.76

----------
- assayedTarget: Torsin-1A (Homo sapiens)
- protocolDescription: torsin A binders from cell lysate, primary screen, small-molecule microarray, wild-type, 635/667 nm (AID 1149)
- conditionContext: COS7 hTOR1A-WT lysate, 635 nm fluorescence, higher = more signal
quantityKind: composite z-score
Please respond with just the number, no unit label.

Worked set:
molecule | quantityKind | val
CCCCN1CC=CC23O[C@@H]4/C=C\CCC(C)OC(=O)C4[C@H]2C(=O)N(CCO)[C@@H]3C1=O (some centres undefined) | composite z-score | 2.84
CC(=O)NCCCC[C@@H]1NC(=O)[C@H]2C[C@@H](C(=O)O)[C@@H](c3cccc(OCCO)c3)N2C1=O | composite z-score | 1.33
N#Cc1ccc(NN2C(C(O)c3ccc(B(O)O)cc3)C=CC3CN(c4ccccc4)C(=O)C32)cc1 (centres undefined) | composite z-score | -0.0754

Attention now turns to another entry.
Exam item: composite z-score lookup needed for C=C(C(=O)CC[C@@H](OC(=O)c1ccccc1-c1ccccc1C(=O)O)c1ccc(OCCO)cc1)C(C)C , thanks.
Marked response: -0.13

----------
- assayedTarget: Neurogenic locus notch homolog protein 3 (Homo sapiens) (UniProt Q9UM47)
- Sequence (Q9UM47 whole entry, looked up): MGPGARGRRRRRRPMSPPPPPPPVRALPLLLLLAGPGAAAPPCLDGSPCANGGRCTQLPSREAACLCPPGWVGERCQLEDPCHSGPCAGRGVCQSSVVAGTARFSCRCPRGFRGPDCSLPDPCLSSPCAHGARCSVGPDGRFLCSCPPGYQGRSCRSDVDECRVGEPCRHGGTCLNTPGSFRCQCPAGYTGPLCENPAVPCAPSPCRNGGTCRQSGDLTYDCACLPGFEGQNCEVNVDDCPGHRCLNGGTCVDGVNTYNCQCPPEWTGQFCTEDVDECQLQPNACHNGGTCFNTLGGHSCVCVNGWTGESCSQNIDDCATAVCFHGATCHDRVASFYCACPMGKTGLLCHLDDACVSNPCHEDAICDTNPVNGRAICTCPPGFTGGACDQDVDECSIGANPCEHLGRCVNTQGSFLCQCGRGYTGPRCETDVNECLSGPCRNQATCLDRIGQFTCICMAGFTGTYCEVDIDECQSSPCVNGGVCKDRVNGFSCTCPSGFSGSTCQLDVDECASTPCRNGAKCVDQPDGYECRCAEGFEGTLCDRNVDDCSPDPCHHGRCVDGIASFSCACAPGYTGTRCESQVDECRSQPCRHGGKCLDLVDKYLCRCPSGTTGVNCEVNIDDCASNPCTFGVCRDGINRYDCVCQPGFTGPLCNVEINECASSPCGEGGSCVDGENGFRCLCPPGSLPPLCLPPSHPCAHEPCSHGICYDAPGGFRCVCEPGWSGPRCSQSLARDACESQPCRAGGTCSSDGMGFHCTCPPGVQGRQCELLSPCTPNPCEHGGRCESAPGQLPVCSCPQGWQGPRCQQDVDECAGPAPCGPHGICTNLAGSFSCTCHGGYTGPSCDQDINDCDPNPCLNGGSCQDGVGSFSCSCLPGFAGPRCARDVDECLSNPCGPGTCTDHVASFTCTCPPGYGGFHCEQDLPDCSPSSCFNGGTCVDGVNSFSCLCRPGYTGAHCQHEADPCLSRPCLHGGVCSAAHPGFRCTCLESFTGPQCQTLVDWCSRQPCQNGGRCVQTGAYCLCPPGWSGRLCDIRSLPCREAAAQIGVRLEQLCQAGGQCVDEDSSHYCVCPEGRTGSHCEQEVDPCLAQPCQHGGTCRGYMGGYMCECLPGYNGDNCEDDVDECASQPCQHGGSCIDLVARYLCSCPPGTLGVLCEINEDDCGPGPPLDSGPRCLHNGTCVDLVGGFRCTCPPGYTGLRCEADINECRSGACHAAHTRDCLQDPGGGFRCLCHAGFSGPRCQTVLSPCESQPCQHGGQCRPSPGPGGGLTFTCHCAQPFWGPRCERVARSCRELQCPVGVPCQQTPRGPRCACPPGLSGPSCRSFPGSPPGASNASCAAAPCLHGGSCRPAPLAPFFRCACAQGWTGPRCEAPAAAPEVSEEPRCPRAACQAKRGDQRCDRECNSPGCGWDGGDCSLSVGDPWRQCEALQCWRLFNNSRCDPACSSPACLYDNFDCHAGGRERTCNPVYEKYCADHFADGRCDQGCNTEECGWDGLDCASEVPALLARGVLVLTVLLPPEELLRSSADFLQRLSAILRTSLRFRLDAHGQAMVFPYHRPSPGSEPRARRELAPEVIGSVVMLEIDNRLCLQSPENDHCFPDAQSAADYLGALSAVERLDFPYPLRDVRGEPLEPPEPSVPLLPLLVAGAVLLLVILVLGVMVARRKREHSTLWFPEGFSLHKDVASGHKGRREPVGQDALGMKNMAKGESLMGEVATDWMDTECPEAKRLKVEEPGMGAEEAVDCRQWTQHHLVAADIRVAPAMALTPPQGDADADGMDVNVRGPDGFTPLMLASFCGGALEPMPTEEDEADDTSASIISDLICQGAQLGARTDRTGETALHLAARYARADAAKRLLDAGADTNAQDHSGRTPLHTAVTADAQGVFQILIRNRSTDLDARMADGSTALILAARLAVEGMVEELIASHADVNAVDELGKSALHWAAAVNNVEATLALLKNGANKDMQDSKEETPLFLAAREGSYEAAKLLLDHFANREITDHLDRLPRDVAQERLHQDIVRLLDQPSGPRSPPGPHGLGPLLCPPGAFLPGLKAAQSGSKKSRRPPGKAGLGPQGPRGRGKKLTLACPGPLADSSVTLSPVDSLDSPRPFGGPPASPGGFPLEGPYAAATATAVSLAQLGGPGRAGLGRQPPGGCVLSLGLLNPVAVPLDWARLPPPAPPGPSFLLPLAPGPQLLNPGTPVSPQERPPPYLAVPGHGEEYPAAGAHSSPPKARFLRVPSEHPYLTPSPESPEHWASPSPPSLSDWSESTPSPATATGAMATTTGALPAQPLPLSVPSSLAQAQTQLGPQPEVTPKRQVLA
- protocolDescription: NOTCH3 binders on small-molecule microarray, primary screen, biochemical, 635/667 nm fluorescence (AID 1096)
- conditionContext: NOTCH3 binding, 635 nm fluorescence, higher = more signal
quantityKind: composite z-score
Please respond with just the number, no unit label.

molecule | composite z-score
C=C(/C=C\CNS(=O)(=O)c1ccc(C)cc1)[C@H](O)[C@H]1CCCN1S(=O)(=O)c1ccccc1[N+](=O)[O-] | 0.221
COC(=O)[C@@]1(Cc2ccc(OC)cc2)[C@H]2c3cc(C(=O)N(C)C)n(Cc4c(CO)[nH]cc(C)c4=O)c3C[C@H]2CN1C(=O)c1ccccc1 | 0.0193
[N-]=[N+]=NCc1ccccc1C[C@]1(C(=O)N2CCCCC2)COC(c2ccc(OCCCO)cc2)=N1 | 0.202

Exam item: Form field - read-out: composite z-score; system: Neurogenic locus notch homolog protein 3 (Homo sapiens) (UniProt Q9UM47); submitted item: C=C(COC)C(=O)CC[C@@H](OC(=O)c1ccccc1-c1ccccc1C(=O)O)c1ccccc1OCCO
Marked response: 0.586

Exam item: Form field - read-out: composite z-score; system: Neurogenic locus notch homolog protein 3 (Homo sapiens) (UniProt Q9UM47); submitted item: CCOC(=O)C1=CCC(c2ccncc2)N(S(=O)(=O)c2ccc(C)cc2)C1 (stereo not given)
Marked response: 1.09

Exam item: Form field - read-out: composite z-score; system: Neurogenic locus notch homolog protein 3 (Homo sapiens) (UniProt Q9UM47); submitted item: COC(=O)[C@@]1(Cc2ccc(F)cc2)[C@@H]2C(=CC(=O)[C@H]2CC(=O)C(=O)N2CCCC2)CN1C(=O)c1ccccc1
Marked response: 1.13

Exam item: Form field - read-out: composite z-score; system: Neurogenic locus notch homolog protein 3 (Homo sapiens) (UniProt Q9UM47); submitted item: CCOC(=O)C[C@H]1[C@H](OC(=O)c2ccc(-c3ccccc3)cc2)[C@@H](NC(=O)c2ccc(-c3ccccc3)cc2)c2cc(OCCCO)ccc2N1C(=O)c1ccccc1
Marked response: 1.07

Exam item: Form field - read-out: composite z-score; system: Neurogenic locus notch homolog protein 3 (Homo sapiens) (UniProt Q9UM47); submitted item: COC(=O)c1ccc(OC)c(/C=C\CC(OC(=O)c2ccncc2)c2ccccc2)c1 (stereo not given)
Marked response: 0.0482

Exam item: Form field - read-out: composite z-score; system: Neurogenic locus notch homolog protein 3 (Homo sapiens) (UniProt Q9UM47); submitted item: COc1ccc([Si](C)(C)[C@@H]2[C@@H](CC(=O)N3Cc4ccccc4C[C@H]3CO)O[C@]3(C(=O)N(Cc4ccc(I)cc4)c4ccccc43)[C@H]2C)cc1
Marked response: 1.1

Exam item: Form field - read-out: composite z-score; system: Neurogenic locus notch homolog protein 3 (Homo sapiens) (UniProt Q9UM47); submitted item: COC(=O)[C@H]1N=C(c2ccc(OCCCO)cc2)O[C@H]1c1ccccc1N=[N+]=[N-]
Marked response: -0.0392
